Data origin: patent US7265135B2

Biological target: human histamine H3 receptor (Homo sapiens)
Construct: One μg supercoiled H3 receptor cDNA was added to the cells and mixed; expressed in transfected cells; membranes prepared from cell pellets
Test: [3H]-N-methylhistamine binding assay
Details: membranes of histamine H3 receptor-expressing SK-N-MC cells; 0.8 nM [3H]-N-methylhistamine; 45 min at 25° C.; Ki=(IC50)/(1+([L]/(KD))
Attribute: pKi
# pKi is unitless: minus log10 of the molar concentration; print number only

Some compounds with known pKi results, for comparison:
smilesnotation=CC(C)N1CCC(COc2ncc(C(=O)c3ccc(Br)cc3)n2C)CC1 measuredparameter=pKi measurednumber=8.28
smilesnotation=Cn1c(C(=O)c2cccc3ccccc23)cnc1OCCCN1CCCCC1 measuredparameter=pKi measurednumber=7.10
smilesnotation=CC(C)N1CCC(COc2ncc(C(=O)c3ccc(F)cc3)n2C)CC1 measuredparameter=pKi measurednumber=8.60
smilesnotation=CC(C)N1CCC(COc2ncc(C(=O)c3ccccc3Cl)n2C)CC1 measuredparameter=pKi measurednumber=8.89
smilesnotation=CN1CCC(Sc2ncc(C(=O)c3ccc(Cl)cc3)n2C)CC1 measuredparameter=pKi measurednumber=8.15

Next item in the queue.
Using the record for CC(C)N1CCC(COc2ncc(C(=O)c3cccc(Cl)c3)n2C)CC1 , report its pKi.
8.55

* * *

Target: human histamine H3 receptor (Homo sapiens, UniProt Q9Y5N1)
Construct: One μg supercoiled H3 receptor cDNA was added to the cells and mixed; expressed in transfected cells; membranes prepared from cell pellets
Sequence (Q9Y5N1 whole entry): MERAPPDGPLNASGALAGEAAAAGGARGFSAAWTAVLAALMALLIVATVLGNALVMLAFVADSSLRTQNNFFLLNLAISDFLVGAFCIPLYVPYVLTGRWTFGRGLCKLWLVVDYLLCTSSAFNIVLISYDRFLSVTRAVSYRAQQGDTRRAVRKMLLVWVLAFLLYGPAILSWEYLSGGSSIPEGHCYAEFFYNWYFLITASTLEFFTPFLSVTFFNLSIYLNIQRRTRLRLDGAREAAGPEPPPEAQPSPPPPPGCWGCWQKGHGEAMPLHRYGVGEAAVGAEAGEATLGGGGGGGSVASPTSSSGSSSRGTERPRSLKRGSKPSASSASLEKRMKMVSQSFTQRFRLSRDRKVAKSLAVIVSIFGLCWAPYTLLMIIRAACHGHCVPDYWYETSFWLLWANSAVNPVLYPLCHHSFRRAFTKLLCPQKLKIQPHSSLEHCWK
Assay: [3H]-N-methylhistamine binding assay
Conditions: membranes of histamine H3 receptor-expressing SK-N-MC cells; 0.8 nM [3H]-N-methylhistamine; 45 min at 25° C.; Ki=(IC50)/(1+([L]/(KD))
measuredParameter: pKi
In plain terms, pKi is the concentration in mol/L turned into minus its base-10 logarithm.

molecule="CC(C)N1CCC(COc2ncc(C(O)c3ccc(C#N)cc3)n2C)CC1 (stereo not drawn)" measuredparameter=pKi measurednumber=8.12
molecule=CC(C)N1CCC(COc2ncc(C(=O)c3ccc(Cl)cc3)n2C)CC1 measuredparameter=pKi measurednumber=8.43
molecule=CN(C)CCSc1ncc(C(=O)c2ccc(Cl)cc2)n1C measuredparameter=pKi measurednumber=7.01
molecule=CN(C)CCCSc1ncc(C(=O)c2ccc(Br)cc2)n1C measuredparameter=pKi measurednumber=8.80
molecule="CN(C)CCCSc1ncc(C(=NO)c2ccc(Cl)cc2)n1C (mixture of isomers)" measuredparameter=pKi measurednumber=8.49

What value of pKi has been recorded for this entry: CC(C)N1CCC(Sc2ncc(C(=O)c3ccc(Cl)cc3)n2C)CC1
8.52

* * *

Biological target: human histamine H3 receptor (Homo sapiens, UniProt Q9Y5N1)
Construct: One μg supercoiled H3 receptor cDNA was added to the cells and mixed; expressed in transfected cells; membranes prepared from cell pellets
Experiment: [3H]-N-methylhistamine binding assay
Conditions: membranes of histamine H3 receptor-expressing SK-N-MC cells; 0.8 nM [3H]-N-methylhistamine; 45 min at 25° C.; Ki=(IC50)/(1+([L]/(KD))
pKi: −log10 of the molar value.
Where pKi equals or exceeds 8, the correct label is criterion met; where it does not, the label is criterion not met.

Example results:
molecule=CN(C)CCCSc1ncc(Cc2ccc(Cl)cc2)n1C labelvalue="criterion not met"
molecule=CN(C)CCCSc1ncc(C(=O)c2ccccc2)n1C labelvalue="criterion met"
molecule="CN1CCCC1CCSc1ncc(C(=O)c2ccc(Cl)cc2)n1C (centres unmarked)" labelvalue="criterion met"
molecule="CN(C)CCC[S+]([O-])c1ncc(C(=O)c2ccc(Cl)cc2)n1C (centres unmarked)" labelvalue="criterion not met"
molecule=CC(C)N1CCC(COc2ncc(C(=O)c3ccc([N+](=O)[O-])cc3)n2C)CC1 labelvalue="criterion met"
molecule=CN(C)CCCSc1ncc(C(=O)c2ccc(Cl)cc2)n1C labelvalue="criterion met"

Determine whether this molecule has pKi no lower than 8: Cn1c(C(=O)c2ccc(Cl)cc2)cnc1SCCCN1CCCCC1
criterion met

Determine whether this molecule has pKi no lower than 8: CC(C)N1CCC(COc2ncc(C(=O)c3ccc(C(F)(F)F)cc3)n2C)CC1
criterion met

Determine whether measured pKi meets or exceeds 8 for Cn1c(CN2CCCCC2)cnc1OCCCN1CCCCC1
criterion not met

Hello, I need to know if CC(C)N1CCC(COc2ncc(C(=O)c3cc(Cl)cc(Cl)c3)n2C)CC1 has measured pKi not below 8. Thanks!
criterion met

Reported pKi at or above 8? CC(C)N1CCC(Oc2ncc(C(=O)c3ccc(Cl)cc3)n2C)CC1
criterion not met

* * *

Measured Ki by item
Target: human histamine H3 receptor (Homo sapiens, UniProt Q9Y5N1)
Construct: One μg supercoiled H3 receptor cDNA was added to the cells and mixed; expressed in transfected cells; membranes prepared from cell pellets
Assay: [3H]-N-methylhistamine binding assay
Details: membranes of histamine H3 receptor-expressing SK-N-MC cells; 0.8 nM [3H]-N-methylhistamine; 45 min at 25° C.; Ki=(IC50)/(1+([L]/(KD))
State just the number; it will be interpreted in nM.

Solved entries (count: 2):
molecule="CCC(C)N1CCC(COc2ncc(C(=O)c3ccc(Br)cc3)n2C)CC1 (stereo not drawn)" measuredparameter=Ki measurednumber=9
molecule=CCN1CCC(COc2ncc(C(=O)c3ccc(Br)cc3)n2C)CC1 measuredparameter=Ki measurednumber=6.6

# context switch: different molecule, same Ki
Item under review: Cn1c(C(=O)c2ccc(Br)cc2)cnc1SCCCN1CCCCC1 . Reported Ki?
7.5
